Record form. Attribute: GFP response vs DMSO. Fill in for each entry.
Test: RPL19A-GFP modulators, yeast TOR pathway, confirmation, cell-based, S. cerevisiae, flow cytometry, cherry picks, mother/daughter gates (AID 2270)
Settings: S. cerevisiae RPL19A-GFP strain, 3 h, measured here: daughter cell gate, at 10 µM, stronger effect = lower value, 100 = same GFP as DMSO wells
Value expressed in %; do not type the unit.

Exercise: // GFP response vs DMSO lookup, key: CN(C)c1ccc(/C=N/NC(=O)c2ccc(Cl)cc2)cc1
Key: 97

Exercise: // GFP response vs DMSO lookup, key: CCCNC(=O)COC(=O)c1ccc(S(=O)(=O)N2CCCC2)cc1
Key: 89.4

Exercise: // GFP response vs DMSO lookup, key: CCOc1ccccc1/C=C/C(=O)c1ccc(Cl)cc1
Key: 97.1

Exercise: // GFP response vs DMSO lookup, key: COc1ccc(C2=NN(S(C)(=O)=O)C(c3ccc4nccnc4c3)C2)cc1 (stereo not drawn)
Key: 99.8

Exercise: // GFP response vs DMSO lookup, key: COc1ccc(C(=O)c2nccc3ccccc23)cc1
Key: 86.1

Exercise: // GFP response vs DMSO lookup, key: CCOc1ccc(N2C(=O)CC(Sc3ncccn3)C2=O)cc1 (stereo not drawn)
Key: 98.4

Exercise: // GFP response vs DMSO lookup, key: Cc1cccc(/C(N)=N/OC(=O)C23CC4CC(CC(C4)C2)C3)c1
Key: 101

Exercise: // GFP response vs DMSO lookup, key: Cc1n[nH]c(C)c1N1C(=O)c2cccc3cc(Br)cc(c23)C1=O
Key: 95.9

Exercise: // GFP response vs DMSO lookup, key: COc1ccc(/C=N/Nc2nc(-c3cccnc3)nc3ccccc23)c(OC)c1
Key: 97.6

Exercise: // GFP response vs DMSO lookup, key: Cc1c(CC(C)C)nc(N)c(C#N)c1-c1ccccc1
Key: 99.8

Exercise: // GFP response vs DMSO lookup, key: O=C(CSc1cccc[n+]1[O-])c1cc2ccccc2o1
Key: 107

Exercise: // GFP response vs DMSO lookup, key: COc1ccc(C2c3c(oc4ccccc4c3=O)C(=O)N2CCN2CCOCC2)cc1OC (stereo not drawn)
Key: 95.3

Exercise: // GFP response vs DMSO lookup, key: CCCc1[nH]nc2c1C1(C(=O)N(CC)c3ccccc31)C(C#N)=C(N)O2 (stereo not drawn)
Key: 95.9

Exercise: // GFP response vs DMSO lookup, key: CCCc1[nH]nc2c1C(c1cc(OC)ccc1F)C(C#N)=C(N)O2 (stereo not drawn)
Key: 99.3

Exercise: // GFP response vs DMSO lookup, key: Cc1cc(NC(=O)c2cccnc2Cl)ccc1NC(=O)c1cc2ccccc2o1
Key: 97.1

Exercise: // GFP response vs DMSO lookup, key: CN(C)c1ccc(/C=C/c2cc[n+](C)cc2)cc1
Key: 109

Exercise: // GFP response vs DMSO lookup, key: Cc1ccccc1C(=O)Nc1cccc(N)c1
Key: 98.6

Exercise: // GFP response vs DMSO lookup, key: CCc1noc(C)c1C(=O)Nc1nc(-c2ccc(Cl)cc2Cl)c(C)s1
Key: 99.1

Exercise: // GFP response vs DMSO lookup, key: CCCN(Cc1nnc(-c2ccccc2Cl)o1)C(=O)c1cc([N+](=O)[O-])cc([N+](=O)[O-])c1
Key: 98.4

Exercise: // GFP response vs DMSO lookup, key: CCOC(=O)c1cnn(-c2cc(C)nc3c(-c4ccccc4)cnn23)c1N
Key: 98.1

Exercise: // GFP response vs DMSO lookup, key: COc1ccc(N2CCN(C(=O)c3ccc(OCC4CCCO4)cc3)CC2)cc1 (stereo not drawn)
Key: 98.8

Exercise: // GFP response vs DMSO lookup, key: COC(=O)Cn1nc(-c2ccccc2)c2ccccc21
Key: 88.5

Exercise: // GFP response vs DMSO lookup, key: O=C(CN1CCN(Cc2ccccc2Cl)C1=O)NC1CCCCCCC1
Key: 98.6

----------
Record form. Attribute: GFP response vs DMSO. Fill in for each entry.
Test: modulators of MEP2-GFP levels in yeast, primary screen, S. cerevisiae, multiplex flow cytometry (AID 1867);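 also: median GFP channel fluorescence of barcode-gated MEP2-GFP cells measured by flow cytometry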
Conditions: S. cerevisiae MEP2-GFP strain, 3 h, at 10 µM, stronger effect = higher value, 100% means same as DMSO wells
Results filed as inconclusive are left out. The source made the active and inactive calls.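 How the source made its calls: active means GFP response, as percent of the DMSO control, above the screen-wide mean plus 3 SD, about 139; inconclusive means no response measured because the compound's own fluorescence interfered; inactive means the rest.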

Exercise: // GFP response vs DMSO lookup, key: C/C(=N\N=C1\NC(=O)C(CC(=O)Nc2ccc(Cl)cc2)S1)c1ccco1 (configuration not stated)
Key: 101% (inactive)

Exercise: // GFP response vs DMSO lookup, key: CCOc1ccc(C(=O)Nc2ccc(N3CCN(C(C)=O)CC3)cc2)cc1[N+](=O)[O-]
Key: 106% (inactive)

Exercise: // GFP response vs DMSO lookup, key: COc1ccc2c(c1)CC[C@@H]1[C@@H]2CC[C@]2(C)C(=O)CC[C@@H]12
Key: 102% (inactive)

Exercise: // GFP response vs DMSO lookup, key: Cc1nc(C)c(C)nc1C
Key: 101% (inactive)

Exercise: // GFP response vs DMSO lookup, key: CNCCCN1c2ccccc2CCc2ccccc21
Key: 111% (inactive)

Exercise: // GFP response vs DMSO lookup, key: Nc1ccc(S(=O)(=O)c2ccc(N)cc2)cc1
Key: 102% (inactive)

Exercise: // GFP response vs DMSO lookup, key: Cc1ccc(NCCC(=O)c2ccccc2)cc1Cl
Key: 110% (inactive)

Exercise: // GFP response vs DMSO lookup, key: CN(CCCN1CCOCC1)Cc1cn(C)nc1-c1ccccc1F
Key: 106% (inactive)

Exercise: // GFP response vs DMSO lookup, key: O=C1NCC2=C1C(c1ccccc1)Nc1ccccc1N2 (configuration not stated)
Key: 112% (inactive)

Exercise: // GFP response vs DMSO lookup, key: COc1cc2c(cc1OC)C(c1cc3ccccc3oc1=O)=NC(C)(C)C2
Key: 103% (inactive)

Exercise: // GFP response vs DMSO lookup, key: COc1ccc(C2NC(=O)c3ccccc3N2)cc1OC (configuration not stated)
Key: 99.9% (inactive)

Exercise: // GFP response vs DMSO lookup, key: Cc1nc(C(=O)Nc2ccccc2Cl)cc2c1[nH]c1ccccc12
Key: 108% (inactive)

----------
Record form. Attribute: GFP response vs DMSO. Fill in for each entry.
Test: modulators of LAP4-GFP expression in yeast, primary screen, S. cerevisiae, multiplex flow cytometry (AID 1873)
Settings: 3 h, at 10 µM, stronger effect = higher value
Results filed as inconclusive are left out. Peptide text beside a SMILES is read from it. * marks the point of attachment. Boc = CC(C)(C)OC(=O)*; OBn = c1ccc(CO*)cc1
Value expressed in %; do not type the unit.

Exercise: // GFP response vs DMSO lookup, key: COc1ccc(C(=O)Nc2ccccc2C(=O)NCCCn2ccnc2)cc1
Key: 75.4

Exercise: // GFP response vs DMSO lookup, key: Cn1c2ccccc2c2cc(/C=C(\NC(=O)c3ccccc3)C(=O)O)ccc21
Key: 92.3

Exercise: // GFP response vs DMSO lookup, key: CC1CNCCN1S(=O)(=O)c1cccc2cnccc12 (stereo not given)
Key: 111

Exercise: // GFP response vs DMSO lookup, key: CCN(CC)CCOC(=O)C1(C2CCCCC2)CCCCC1
Key: 110

Exercise: // GFP response vs DMSO lookup, key: c1cc2c(cc1C1CCCCC1)c1c3n2CCN=C3CCC1
Key: 99.4

Exercise: // GFP response vs DMSO lookup, key: O=c1c2ccccc2nnn1Cc1cccc2ccccc12
Key: 78.7

Exercise: // GFP response vs DMSO lookup, key: NCCOc1ccccc1OCCN
Key: 90.3

Exercise: // GFP response vs DMSO lookup, key: C=CCc1cc(Cl)ccc1OCCOCCN(C)C
Key: 75.2

Exercise: // GFP response vs DMSO lookup, key: CCCN(CCC)S(=O)(=O)c1ccc(C(=O)O)cc1
Key: 124

Exercise: // GFP response vs DMSO lookup, key: Cc1cnc(C(=O)N2CCCC(C(=O)c3ccc(Cl)cc3C)C2)cn1 (stereo not given)
Key: 96.4

Exercise: // GFP response vs DMSO lookup, key: C[C@H](CS)C(=O)N1CCC[C@H]1C(=O)O
Key: 96.4

Exercise: // GFP response vs DMSO lookup, key: CCOC(=O)c1oc2cc(OCC(N)=O)ccc2c(=O)c1-c1ccc(OC)c(OC)c1
Key: 94.3

Exercise: // GFP response vs DMSO lookup, key: CC(C)(C)c1csc(N/N=C/c2cccnc2)n1
Key: 107

Exercise: // GFP response vs DMSO lookup, key: COc1cccc(N2C(=O)[C@H]3C(C(=O)c4cnccn4)=NN[C@H]3C2=O)c1
Key: 79.8

Exercise: // GFP response vs DMSO lookup, key: CC(C)(C)[C@]1(O)CCN2C[C@H]3c4ccccc4CCc4cccc(c43)[C@@H]2C1
Key: 102

Exercise: // GFP response vs DMSO lookup, key: COc1ccc(-c2noc(CCc3ccccc3)n2)cc1
Key: 101

Exercise: // GFP response vs DMSO lookup, key: CC1(C)CC(=O)C(C(=O)CCCCC(=O)C2C(=O)CC(C)(C)CC2=O)C(=O)C1
Key: 91.3

Exercise: // GFP response vs DMSO lookup, key: CC1(C)S[C@@H]2[C@H](NC(=O)C(C(=O)O)c3ccccc3)C(=O)N2[C@H]1C(=O)O (stereo not given in full)
Key: 88.3

Exercise: // GFP response vs DMSO lookup, key: CC1(C)c2ccccc2N2CC(=O)N(CC(N)=O)C21C (stereo not given)
Key: 109

Exercise: // GFP response vs DMSO lookup, key: CC(=O)OCC(=O)C1=CCC2C3CCC4=CC(=O)C=CC4(C)C3(F)C(OC(C)=O)CC12C (stereo not given)
Key: 84.3

Exercise: // GFP response vs DMSO lookup, key: COCCc1ccc(OCC(O)CNC(C)C)cc1 (stereo not given)
Key: 87.4

Exercise: // GFP response vs DMSO lookup, key: COc1ccc2c(c1)C(=O)CC(c1ccccc1F)O2 (stereo not given)
Key: 92.3

Exercise: // GFP response vs DMSO lookup, key: O=C1C=CC(=O)C(C2=C3C(=O)N(CCc4ccccc4)CC(=O)N3CCC2)=C1
Key: 94.3

Exercise: // GFP response vs DMSO lookup, key: CCOC(=O)c1ccc2[nH]c(C)c(CCC(C)=O)c(=O)c2c1
Key: 88.3

Exercise: // GFP response vs DMSO lookup, key: C[N+]12CCC(CC1)C(OC(=O)C(O)(c1ccccc1)c1ccccc1)C2 (stereo not given)
Key: 100

Exercise: // GFP response vs DMSO lookup, key: CC(=O)NCCCCCCNC(C)=O
Key: 90.3

Exercise: // GFP response vs DMSO lookup, key: COc1ccc2nc(Nc3nc(CSc4ccc(C)cc4)cc(=O)[nH]3)nc(C)c2c1
Key: 90.3

Exercise: // GFP response vs DMSO lookup, key: CC1=CC(C)(C)N2C(=O)C3(NCCc4c3[nH]c3ccccc43)c3cc(C)cc1c32 (stereo not given)
Key: 82.3

Exercise: // GFP response vs DMSO lookup, key: O=C(CC(C(=O)O)c1c[nH]c2ccccc12)c1ccccc1 (stereo not given)
Key: 103

Exercise: // GFP response vs DMSO lookup, key: Cc1ccccc1NC(=O)C1c2ccccc2Oc2ccccc21
Key: 77.6

Exercise: // GFP response vs DMSO lookup, key: CCCCNc1cc(C(=O)O)cc(S(N)(=O)=O)c1Oc1ccccc1
Key: 89.3

Exercise: // GFP response vs DMSO lookup, key: CC1(C)Cc2ccccc2C(C(Cc2ccccc2)C(N)=O)=N1 (stereo not given)
Key: 89.3

Exercise: // GFP response vs DMSO lookup, key: COc1cc2c(cc1OC)C(c1cc(OC)c(OC)c(OC)c1)NCC2 (stereo not given)
Key: 90.3

Exercise: // GFP response vs DMSO lookup, key: CN(C)c1nc(N(C)C)nc(N(C)C)n1
Key: 97.4

Exercise: // GFP response vs DMSO lookup, key: Clc1ccc(Cn2c(CN3CCCC3)nc3ccccc32)cc1
Key: 100

Exercise: // GFP response vs DMSO lookup, key: CCOC(=O)c1c(C)oc2cc(Br)c(OC(C)C(=O)OCC)cc12 (stereo not given)
Key: 84.7

Exercise: // GFP response vs DMSO lookup, key: CC1(C(=O)O)CCC(C(=O)NC2CCCCCC2)C1(C)C (stereo not given)
Key: 110

Exercise: // GFP response vs DMSO lookup, key: CCCCC1C(=O)N(c2ccccc2)N(c2ccccc2)C1=O
Key: 89.7

Exercise: // GFP response vs DMSO lookup, key: CC/C(=C1/C(=O)CC(C)(C)C(C(=O)OC)C1=O)N1CCCC1 (stereo not given)
Key: 83.5

Exercise: // GFP response vs DMSO lookup, key: CC(C)CC(NC(=O)C(NC(=O)OC(C)(C)C)C(C)C)C(=O)NC(CCC(=O)OCc1ccccc1)C(N)=O (stereo not drawn) (Boc-Val-Leu-Glu(OBn)-NH2; configuration not given here)
Key: 84.3

Exercise: // GFP response vs DMSO lookup, key: Cn1c(=O)oc2cc(S(=O)(=O)N3CCc4ccccc4C3)ccc21
Key: 89.3

Exercise: // GFP response vs DMSO lookup, key: CCOC(=O)c1cnc2ccccc2c1NCCO
Key: 102

Exercise: // GFP response vs DMSO lookup, key: CN1C(=O)C(O)(CC(=O)c2ccccc2O)c2cc(Br)ccc21 (stereo not given)
Key: 115

Exercise: // GFP response vs DMSO lookup, key: COCCOC(=O)c1c(C)oc2ccc(OCc3cc(C(=O)OC)oc3C)cc12
Key: 101

Exercise: // GFP response vs DMSO lookup, key: COc1ccc(Cc2nc(-c3ccc(Br)cc3)no2)cc1
Key: 95.3
